Tested on: SMN2 minigene mRNA (SMN2-A minigene) in HEK293H cells
protocol-notes: SMN2 minigene mRNA splicing RT-qPCR assay in cultured cells
Assay type: cell-based, human
experimental-context: Homo sapiens, HEK293-H; concentration increasing full length SMN2 mRNA 1.5-fold relative to vehicle-treated cells; HEK293H cells with SMN2-A minigene, 24 hours, 7-point concentration data; read-out: EC1.5x for production of full length SMN2 mRNA
metric: EC (1.5-fold increase)

- smiles-record: "Cc1cn2nc(-c3cc(=O)n4cc(N5CCN[C@H](C)C5)ccc4n3)cc2c(C)n1"
  target: "SMN2 minigene mRNA (SMN2-A minigene) in HEK293H cells"
  endpoint-result: "< 0.1 µM"
- smiles-record: "Cc1cn2cc(-c3cc(=O)n4cc(C5CCNCC5)ncc4n3)cc(C)c2n1"
  target: "SMN2 minigene mRNA (SMN2-A minigene) in HEK293H cells"
  endpoint-result: "< 0.1 µM"
- smiles-record: "Cc1nc2ccc(-c3cc(=O)n4cc(N5CCN(C)[C@@H](C)C5)ccc4c3)cc2o1"
  target: "SMN2 minigene mRNA (SMN2-A minigene) in HEK293H cells"
  endpoint-result: "0.3 to 1 µM"
- smiles-record: "COc1ccc(-c2cc(=O)n3cc(N4CCC(N(C)C)CC4)ccc3c2)cc1F"
  target: "SMN2 minigene mRNA (SMN2-A minigene) in HEK293H cells"
  endpoint-result: "1 to 3 µM"
- smiles-record: "Cc1cn2cc(-c3cc(=O)n4cc(N5CCN(C)[C@@H](C)C5)ccc4n3)cc(F)c2n1"
  target: "SMN2 minigene mRNA (SMN2-A minigene) in HEK293H cells"
  endpoint-result: "< 0.1 µM"
- smiles-record: "Cc1cn2cc(-c3cc(=O)n4cc(N5CCNCC5)ccc4n3)nc2cn1"
  target: "SMN2 minigene mRNA (SMN2-A minigene) in HEK293H cells"
  endpoint-result: "< 0.1 µM"

----------
Test system: SMN2 minigene mRNA (SMN2-A minigene) in HEK293H cells
protocol-notes: SMN2 minigene mRNA splicing RT-qPCR assay in cultured cells
Format: cell-based, human
experimental-context: Homo sapiens, HEK293-H; concentration increasing full length SMN2 mRNA 1.5-fold relative to vehicle-treated cells; HEK293H cells with SMN2-A minigene, 24 hours, 7-point concentration data; read-out: EC1.5x for production of full length SMN2 mRNA
Reported EC (1.5-fold increase) values for a set of compounds

- smiles-record: "Cn1cc(-c2cc(=O)n3cc(N4CCNCC4)ccc3n2)cn1"
  target: "SMN2 minigene mRNA (SMN2-A minigene) in HEK293H cells"
  EC (1.5-fold increase): "1 to 3 µM"
- smiles-record: "CN[C@H]1CCN(c2ccc3nc(-c4ccc(OC)c(F)c4)cc(=O)n3c2)C1"
  target: "SMN2 minigene mRNA (SMN2-A minigene) in HEK293H cells"
  EC (1.5-fold increase): "0.3 to 1 µM"
- smiles-record: "Cc1cn2cc(-c3cc(=O)n4cc(N5CCNC6(CC6)C5)ccc4n3)cc(C)c2n1"
  target: "SMN2 minigene mRNA (SMN2-A minigene) in HEK293H cells"
  EC (1.5-fold increase): "< 0.1 µM"
- smiles-record: "CCc1nc(C)cn2nc(-c3cc(=O)n4cc(N5CCN[C@@H](C)C5)ccc4n3)cc12"
  target: "SMN2 minigene mRNA (SMN2-A minigene) in HEK293H cells"
  EC (1.5-fold increase): "< 0.1 µM"
- smiles-record: "Cc1cn2nc(-c3cc(=O)n4cc(N5CCNCC5)ccc4n3)cc2c(C)n1"
  target: "SMN2 minigene mRNA (SMN2-A minigene) in HEK293H cells"
  EC (1.5-fold increase): "< 0.1 µM"
- smiles-record: "CCc1nc(C)cn2nc(-c3cc(=O)n4cc(C5CCN(CC)CC5)ncc4n3)cc12"
  target: "SMN2 minigene mRNA (SMN2-A minigene) in HEK293H cells"
  EC (1.5-fold increase): "< 0.1 µM"
- smiles-record: "Cc1cn2cc(-c3cc(=O)n4cc(N5CC[C@@H](N(C)C)C5)ccc4n3)cc(C)c2n1"
  target: "SMN2 minigene mRNA (SMN2-A minigene) in HEK293H cells"
  EC (1.5-fold increase): "< 0.1 µM"
- smiles-record: "C[C@H]1CN(c2ccc3nc(-c4cncc(Cl)c4)cc(=O)n3c2)CCN1"
  target: "SMN2 minigene mRNA (SMN2-A minigene) in HEK293H cells"
  EC (1.5-fold increase): "1 to 3 µM"

----------
System: SMN2 minigene mRNA (SMN2-A minigene) in HEK293H cells
protocol-notes: SMN2 minigene mRNA splicing RT-qPCR assay in cultured cells
Assay type: cell-based, human
experimental-context: Homo sapiens, HEK293-H; concentration increasing full length SMN2 mRNA 1.5-fold relative to vehicle-treated cells; HEK293H cells with SMN2-A minigene, 24 hours, 7-point concentration data; read-out: EC1.5x for production of full length SMN2 mRNA

- smiles-record: "CCCN1CC=C(c2ccc3nc(-c4cc(F)c5nc(C)oc5c4)cc(=O)n3c2)CC1"
  EC (1.5-fold increase): "< 0.1 µM"
- smiles-record: "CCc1nc(C)cn2nc(-c3cc(=O)n4cc(OCCN(C)C)cc(C)c4n3)cc12"
  EC (1.5-fold increase): "0.1 to 0.3 µM"
- smiles-record: "Cc1cc(-c2cc(=O)n3cc(C4CCNCC4)ccc3n2)cc2cnn(C)c12"
  EC (1.5-fold increase): "0.3 to 1 µM"
- smiles-record: "Cc1cn2cc(-c3cc(=O)n4cc(N5CCNCC5)ccc4n3)cc(Cl)c2n1"
  EC (1.5-fold increase): "< 0.1 µM"
- smiles-record: "CCc1nc(C)cn2nc(-c3cc(=O)n4cc(N5CCNCC5)ccc4n3)cc12"
  EC (1.5-fold increase): "< 0.1 µM"
- smiles-record: "CCNC1CCN(c2cc(C)c3nc(-c4cc5c(C)nc(C)cn5n4)cc(=O)n3c2)CC1"
  EC (1.5-fold increase): "< 0.1 µM"
- smiles-record: "Cc1cn2nc(-c3cc(=O)n4cc(N5CCCN(C)CC5)cc(C)c4n3)cc2c(C)n1"
  EC (1.5-fold increase): "0.1 to 0.3 µM"
- smiles-record: "CCc1nc(C)cn2nc(-c3cc(=O)n4cc(N5CCN(C)[C@H](C)C5)cc(C)c4n3)cc12"
  EC (1.5-fold increase): "< 0.1 µM"
- smiles-record: "Cc1cn2cc(-c3cc(=O)n4cc(C5CCN(CCO)CC5)ccc4n3)cc(C)c2n1"
  EC (1.5-fold increase): "< 0.1 µM"
- smiles-record: "CN1CC=C(c2ccc3nc(-c4ccc5nn(C)cc5c4)cc(=O)n3c2)CC1"
  EC (1.5-fold increase): "< 0.1 µM"
- smiles-record: "Cc1cn2cc(-c3cc(=O)n4cc(N5CCC(N(C)C)CC5)ccc4n3)cc(F)c2n1"
  EC (1.5-fold increase): "< 0.1 µM"
- smiles-record: "CCc1nc(C)cn2nc(-c3cc(=O)n4cc(N5CCN[C@H](C)C5)ccc4n3)cc12"
  EC (1.5-fold increase): "< 0.1 µM"
- smiles-record: "COc1ccc(-c2cc(=O)n3cc(N4CCC(CN5CCCCC5)CC4)ccc3n2)cc1OC"
  EC (1.5-fold increase): "0.3 to 1 µM"
- smiles-record: "CCN1CC=C(c2cn3c(=O)cc(-c4ccc5nc(C)oc5c4)nc3cn2)CC1"
  EC (1.5-fold increase): "< 0.1 µM"
- smiles-record: "Cc1nc2cc(-c3cc(=O)n4cc(N5C[C@H]6CNC[C@H]6C5)ccc4n3)ccc2s1"
  EC (1.5-fold increase): "< 0.1 µM"
- smiles-record: "COc1ccc(-c2cc(=O)n3cc(N4CCCN(C)CC4)ccc3n2)cc1OC"
  EC (1.5-fold increase): "0.3 to 1 µM"
- smiles-record: "COc1cccc(-c2cc(=O)n3cc(N4CCCNCC4)ccc3n2)c1"
  EC (1.5-fold increase): "3 to 30 µM"
